Would you mind telling me the reported inhibition at 4 µM of each entry?
# TARGET_SYSTEM: ATX (autotaxin) (Homo sapiens)
# Construct: purchased Cayman 10803
# MEASUREMENT_NOTES: Autotaxin Inhibition Screening Assay (choline release from LPC, LPC-CR)
# Assay type: biochemical
# SETUP_CONDITIONS: 4 μM compound

Missing value: inhibition at 4 µM, ATX (autotaxin) (Homo sapiens), entry O=C(/C=C/c1ccc2c(c1)CCC2NCCC(=O)Nc1cc(C(F)(F)F)cc(C(F)(F)F)c1)NO (stereo not shown) [Compound 50] . Fill in?
< 50%

Value wanted: inhibition at 4 µM (ATX (autotaxin) (Homo sapiens)) of entry Nc1cc(F)ccc1NC(=O)/C=C/c1ccc2c(c1)CCCC2NC(=O)c1cc(C(F)(F)F)cc(C(F)(F)F)c1 (stereo not shown) [Compound 23]
< 50%

Form field - read-out: inhibition at 4 µM; system: ATX (autotaxin) (Homo sapiens); submitted item: CN(C)c1ccc(CCNC2CCc3cc(/C=C/C(=O)NO)ccc32)cc1 (stereo not shown) [Compound 56]
< 50%

Tell me reported inhibition at 4 µM for CCN(CC)c1ccc(C(=O)NC2CCc3cc(/C=C/C(=O)NO)ccc32)cc1 (stereo not shown) [Compound 28] , tested with ATX (autotaxin) (Homo sapiens).
< 50%

Checklist item: inhibition at 4 µM tested on ATX (autotaxin) (Homo sapiens), entry Nc1cc(F)ccc1NC(=O)CCCCC(=O)N1CCN(C(=O)c2ccc3c(c2)CC/C(=C\c2cc(C(F)(F)F)cc(C(F)(F)F)c2)C3=O)CC1 [Compound 82] , value?
> 80%

ATX (autotaxin) (Homo sapiens) / inhibition at 4 µM / Cc1ccc(S(=O)(=O)NC2CCc3cc(/C=C/C(=O)NO)ccc32)cc1 (stereo not shown) [Compound 16] : value?
< 50%

Param readout = inhibition at 4 µM; param system = ATX (autotaxin) (Homo sapiens); param query = Nc1cc(F)ccc1NC(=O)CCCCCCC(=O)NC1CCc2cc(Br)ccc21 (stereo not shown) [Compound 39] ; response: value
< 50%

inhibition at 4 µM of O=C(CCCCCCC(=O)NC1CCCc2cc(Br)ccc21)NO (stereo not shown) [Compound 46] on ATX (autotaxin) (Homo sapiens)?
< 50%

Form field - read-out: inhibition at 4 µM; system: ATX (autotaxin) (Homo sapiens); submitted item: COc1ccc2c(c1)CCCC2NC(=O)CCCCCCC(=O)Nc1ccc(F)cc1N (stereo not shown) [Compound 47]
< 50%

# returns recorded inhibition at 4 µM (system: ATX (autotaxin) (Homo sapiens)) for COc1ccc2c(c1)CCC2NC(=O)CCCCCCC(=O)NO (stereo not shown) [Compound 44]
< 50%

Report inhibition at 4 µM for COc1ccc(CCNC2CCc3cc(/C=C/C(=O)Nc4ccc(F)cc4N)ccc32)cc1 (stereo not shown) [Compound 51] tested on ATX (autotaxin) (Homo sapiens).
< 50%

Query inhibition at 4 µM on ATX (autotaxin) (Homo sapiens) for O=C(/C=C/c1ccc2c(c1)CCC2NCCc1ccc(F)cc1)NO (stereo not shown) [Compound 53]
< 50%

Reported inhibition at 4 µM for ATX (autotaxin) (Homo sapiens), given CN(C(=O)OCc1cc(C(F)(F)F)cc(C(F)(F)F)c1)C1CCc2cc(/C=C/C(=O)NO)ccc21 (stereo not shown) [Compound 64] ?
50 to 80%

Notebook: pull reported inhibition at 4 µM for ATX (autotaxin) (Homo sapiens), entry Nc1cc(F)ccc1NC(=O)/C=C/c1ccc2c(c1)CCC2NCCc1c[nH]c2ccccc12 (stereo not shown) [Compound 57]
< 50%

Any idea what inhibition at 4 µM came out for O=C(CCCCCCC(=O)Nc1ccc2c(c1)CCC(Cc1cc(C(F)(F)F)cc(C(F)(F)F)c1)C2=O)NO (stereo not shown) [Compound 10] on ATX (autotaxin) (Homo sapiens)?
> 80%

Notebook: pull reported inhibition at 4 µM for ATX (autotaxin) (Homo sapiens), entry COc1ccc(C(=O)NC2CCc3cc(/C=C/C(=O)NO)ccc32)cc1 (stereo not shown) [Compound 25]
< 50%

Please state recorded inhibition at 4 µM (tested on ATX (autotaxin) (Homo sapiens)) of O=C(/C=C/c1ccc2c(c1)CCCC2NC(=O)c1cc(C(F)(F)F)cc(C(F)(F)F)c1)NO (stereo not shown) [Compound 24]
< 50%

Item COc1ccc(S(=O)(=O)NC2CCc3cc(/C=C/C(=O)NO)ccc32)cc1 (stereo not shown) [Compound 20] with ATX (autotaxin) (Homo sapiens) - inhibition at 4 µM?
< 50%

Entry Nc1cc(F)ccc1NC(=O)/C=C/c1ccc2c(c1)CCC2NS(=O)(=O)c1cc(C(F)(F)F)cc(C(F)(F)F)c1 (stereo not shown) [Compound 17] , system ATX (autotaxin) (Homo sapiens): what inhibition at 4 µM was measured?
< 50%
